- system_name: BTK (Homo sapiens (Human))
- test_name: Determination of drug-kinase residence time (TR-FRET tracer competition, occupancy after washout)
- Format: binding
- condition_summary: 6 h of washout; 1.5 μM compound, 500 nM BTK
metric: % occupany at 6 h (%)

Below, 4 molecules whose answers are already recorded.
{"columns": ["molecule", "reported_value"],
 "data": [
  ["N#CC(=CC1CCC1)C(=O)N1CCC[C@@H](n2c(=O)n(-c3ccc(Oc4ccccc4)cc3)c3c(N)nccc32)C1 [Compound 8]", 89.195],
  ["COCCN1CCN(C(C)(C)C=C(C#N)C(=O)N2CCC[C@@H](n3c(=O)n(-c4ccc(Oc5ccccc5)cc4)c4c(N)nccc43)C2)CC1 [Compound 9]", 70.733],
  ["CC(C)(C=C(C#N)C(=O)N1CCC[C@H]1Cn1c(=O)n(-c2ccc(Oc3ccccc3)cc2)c2c(N)nccc21)N1CCN(C2COC2)CC1 [Compound 13]", 83.963],
  ["CC1(C=C(C#N)C(=O)N2CCC[C@@H](n3c(=O)n(-c4ccc(Oc5ccccc5)cc4)c4c(N)nccc43)C2)CCC1 [Compound 3]", 58.519]
]}

[I] CC(C)(C=C(C#N)C(=O)N1CCC[C@@H](n2c(=O)n(-c3ccc(Oc4ccccc4)cc3)c3c(N)nccc32)C1)N1CCOCC1 [Compound 4]
[II] CC(C)(C)C=C(C#N)C(=O)N1CCC[C@H]1Cn1c(=O)n(-c2ccc(Oc3ccccc3)cc2)c2c(N)nccc21 [Compound 12]
### Prompt Of I and II , whose reported % occupany at 6 h is the larger number? Answer with the label corresponding to your selection.
### Response II
(II: 96.44%, I: 66.344%)

----------
- system_name: BTK (Homo sapiens (Human))
- test_name: Determination of drug-kinase residence time (TR-FRET tracer competition, occupancy after washout)
- Type: binding
- condition_summary: 1 h of washout; 1.5 μM compound, 500 nM BTK
metric: % occupany at 1 h (%)

{"columns": ["compound_smiles", "reported_value"],
 "data": [
  ["CC(C)(C)C=C(C#N)C(=O)N1CCC[C@@H](n2c(=O)n(-c3ccc(Oc4ccccc4)cc3)c3c(N)nccc32)C1", 97.036],
  ["CC(C)(C=C(C#N)C(=O)N1CCC[C@@H](n2c(=O)n(-c3ccc(Oc4ccccc4)cc3)c3c(N)nccc32)C1)N1CCN(CC(F)(F)F)CC1", 94.404],
  ["CC(C)(C=C(C#N)C(=O)N1CCC[C@@H](n2c(=O)n(-c3ccc(Oc4ccccc4)cc3)c3c(N)nccc32)C1)N1CCN(C2COC2)CC1", 93.773]
]}

----------
- system_name: BTK (Homo sapiens (Human))
- test_name: BTK enzymatic activity assay (Caliper-based kinase assay)
- condition_summary: human recombinant BTK 0.5 nM, ATP 16 μM, 3 h room temperature
pIC50: −log10 of the molar value.
metric: pIC50

{"columns": ["compound_smiles", "pIC50"],
 "data": [
  ["CC(C)(C=C(C#N)C(=O)N1CCC[C@@H](n2c(=O)n(-c3ccc(Oc4ccccc4)cc3F)c3c(N)nccc32)C1)N1CCN(C2COC2)CC1", 8.31],
  ["CC(C)(C=C(C#N)C(=O)N1CCC[C@@H](n2c(=O)n(-c3ccc(Oc4ccccc4)cc3)c3c(N)nccc32)C1)N1CCN2C(=O)CC[C@@H]2C1", 8.60],
  ["CC(C)(C=C(C#N)C(=O)N1CCC[C@@H](n2c(=O)n(-c3ccc(Oc4ccccc4)cc3)c3c(N)nccc32)C1)N1CCNCC1", 8.51]
]}

[I] COCCN1CCN(C(C)(C)C=C(C#N)C(=O)N2CCC[C@@H](n3c(=O)n(-c4ccc(Oc5ccccc5)cc4)c4c(N)nccc43)C2)CC1
[II] CO[C@@H]1CCN(C(C)(C)C=C(C#N)C(=O)N2CCC[C@@H](n3c(=O)n(-c4ccc(Oc5ccccc5)cc4)c4c(N)nccc43)C2)C1
### Prompt Which is greater in pIC50, the first item I or the second item II ? Please indicate the selected item by its label.
### Response II
(II: 8.62, I: 8.11)

[1] CC(C)(C=C(C#N)C(=O)N1CCC[C@@H](n2c(=O)n(-c3ccc(Oc4c(F)cccc4F)cc3)c3c(N)nccc32)C1)N1CCN(C2COC2)CC1
[2] N#CC(=CC1CCSCC1)C(=O)N1CCC[C@@H](n2c(=O)n(-c3ccc(Oc4ccccc4)cc3)c3c(N)nccc32)C1
### Prompt Could you please tell me which of these two has the higher pIC50: 1 or 2 ? To answer, give the label that identifies your chosen option.
### Response 1

----------
- system_name: BTK (Homo sapiens (Human), UniProt Q06187)
- Sequence (Q06187 whole entry): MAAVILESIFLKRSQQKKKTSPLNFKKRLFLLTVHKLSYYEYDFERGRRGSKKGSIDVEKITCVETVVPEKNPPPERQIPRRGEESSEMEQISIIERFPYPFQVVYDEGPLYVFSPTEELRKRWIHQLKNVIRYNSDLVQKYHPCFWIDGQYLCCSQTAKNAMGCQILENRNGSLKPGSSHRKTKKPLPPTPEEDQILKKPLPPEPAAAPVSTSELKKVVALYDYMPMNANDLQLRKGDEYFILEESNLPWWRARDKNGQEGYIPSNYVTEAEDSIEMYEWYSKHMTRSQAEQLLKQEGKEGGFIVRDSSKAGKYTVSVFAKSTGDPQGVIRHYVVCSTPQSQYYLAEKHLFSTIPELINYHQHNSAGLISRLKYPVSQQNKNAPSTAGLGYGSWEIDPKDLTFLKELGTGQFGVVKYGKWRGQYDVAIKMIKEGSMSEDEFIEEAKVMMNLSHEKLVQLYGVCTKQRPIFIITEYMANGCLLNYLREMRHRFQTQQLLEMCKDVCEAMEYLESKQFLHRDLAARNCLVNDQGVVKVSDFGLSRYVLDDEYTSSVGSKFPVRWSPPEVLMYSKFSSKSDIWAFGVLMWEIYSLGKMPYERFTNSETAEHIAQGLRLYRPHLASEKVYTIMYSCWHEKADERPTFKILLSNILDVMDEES
- test_name: Determination of drug-kinase residence time (TR-FRET tracer competition, occupancy after washout)
- Type: binding
- condition_summary: 24 h of washout; 1.5 μM compound, 500 nM BTK
metric: % occupany at 24 h (%)

For orientation, consider the following solved cases.
{"columns": ["compound_smiles", "% occupany at 24 h (%)"],
 "data": [
  ["CC#CC(=O)N1CCC[C@@H](n2c(=O)n(-c3ccc(Oc4ccccc4)cc3)c3c(N)nccc32)C1", 74.744],
  ["CC(C)(C)C=C(C#N)C(=O)N1CCC[C@H]1Cn1c(=O)n(-c2ccc(Oc3ccccc3)cc2)c2c(N)nccc21", 90.847],
  ["N#CC(=CC1CCOCC1)C(=O)N1CCC[C@@H](n2c(=O)n(-c3ccc(Oc4ccccc4)cc3)c3c(N)nccc32)C1", 65.826],
  ["CC(C)(C=C(C#N)C(=O)N1CCC[C@H]1Cn1c(=O)n(-c2ccc(Oc3ccccc3)cc2)c2c(N)nccc21)N1CCN(C2COC2)CC1", 49.152]
]}

[P] CC(C)(C=C(C#N)C(=O)N1CCC[C@@H](n2c(=O)n(-c3ccc(Oc4ccccc4)cc3)c3c(N)nccc32)C1)N1CCN(CC(F)(F)F)CC1
[Q] CN1CCC(C(C)(C)C=C(C#N)C(=O)N2CCC[C@@H](n3c(=O)n(-c4ccc(Oc5ccccc5)cc4)c4c(N)nccc43)C2)CC1
### Prompt // compare measured % occupany at 24 h, left P , right Q , return larger Your choice should be expressed through its label.
### Response P
(P: 67.505%, Q: −12.344%)

----------
- system_name: UniProt:Q06187
- test_name: BTK enzymatic activity assay (Caliper-based kinase assay)
- condition_summary: human recombinant BTK 0.5 nM, ATP 16 μM, 3 h room temperature
metric: IC50 (nM)

A selection of reference data follows.
{"columns": ["compound", "IC50 [nM]"],
 "data": [
  ["CN1CCN(c2cccc(C(C)(C)C=C(C#N)C(=O)N3CCC[C@@H](n4c(=O)n(-c5ccc(Oc6ccccc6)cc5)c5c(N)nccc54)C3)n2)CC1", 17.8],
  ["COC(=O)N1CCN(C(C)(C)C=C(C#N)C(=O)N2CCC[C@@H](n3c(=O)n(-c4ccc(Oc5ccccc5)cc4)c4c(N)nccc43)C2)CC1", 7],
  ["CC(C)(C=C(C#N)C(=O)N1CCC[C@@H](n2c(=O)n(-c3ccc(Oc4ccccc4)cc3)c3c(N)nccc32)C1)N1CCn2cnnc2C1", 1.8],
  ["C[C@@H]1CN(C(C)(C)C=C(C#N)C(=O)N2CCC[C@@H](n3c(=O)n(-c4ccc(Oc5ccccc5)cc4)c4c(N)nccc43)C2)C[C@H](C)N1", 7.8],
  ["N#CC(=CC1(c2ccccc2)CC1)C(=O)N1CCC[C@@H](n2c(=O)n(-c3ccc(Oc4ccccc4)cc3)c3c(N)nccc32)C1", 13.1]
]}

[1] CC(C)(C=C(C#N)C(=O)N1CCC[C@H]1Cn1c(=O)n(-c2ccc(Oc3ccccc3)cc2)c2c(N)nccc21)N1CCN(C2COC2)CC1
[2] COCC1(C=C(C#N)C(=O)N2CCC[C@@H](n3c(=O)n(-c4ccc(Oc5ccccc5)cc4)c4c(N)nccc43)C2)CCOCC1
### Prompt Between 1 and 2 , which one shows the larger IC50 value? Label of pick, please.
### Response 1
(1: 21.1 nM, 2: 2 nM)

[1] CC(C)(C)C=C(C#N)C(=O)N1CCC[C@@H](n2c(=O)n(-c3ccc(Oc4ccccc4)cc3)c3c(N)nccc32)C1
[2] N#CC(=CC(CCO)CCO)C(=O)N1CCC[C@@H](n2c(=O)n(-c3ccc(Oc4ccccc4)cc3)c3c(N)nccc32)C1
### Prompt Exercise: compare 1 and 2 ; which one has the greater IC50? Reply briefly: the label of your chosen item.
### Response 2
(2: 78.6 nM, 1: 8.2 nM)

[P] CC1(C=C(C#N)C(=O)N2CCC[C@@H](n3c(=O)n(-c4ccc(Oc5ccccc5)cc4)c4c(N)ncnc43)C2)CCN(C2COC2)CC1
[Q] C=CC(=O)N1CCC[C@H]1Cn1c(=O)n(-c2ccc(Oc3ccccc3)cc2)c2c(N)nccc21
### Prompt Which value of IC50 is greater, the one for P or the one for Q ? Returns: label corresponding to the selected item.
### Response Q
(Q: 4.8 nM, P: 2.9 nM)

[I] N#CC(=CC1CCOCC1)C(=O)N1CCC[C@@H](n2c(=O)n(-c3ccc(Oc4ccccc4)cc3)c3c(N)nccc32)C1
[II] CC#CC(=O)N1CCC[C@@H](n2c(=O)n(-c3ccc(Oc4ccccc4)cc3)c3c(N)nccc32)C1
[III] CC(C)(C=C(C#N)C(=O)N1CCC[C@@H](n2c(=O)n(-c3ccc(Oc4ccccc4)cc3)c3c(N)nccc32)C1)N1CCC(F)(F)C1
### Prompt Put the items in order so that reported IC50 rises from first to last. List the labels according to the requested ordering.
### Response III, I, II
(III: 4.2 nM, I: 9.1 nM, II: 13.3 nM)

From: patent US9688676B2
